These entries and their values trace back to patent US20080076751A1.

- SYSTEM_TESTED: TRPV1 (VR1) (Rattus norvegicus)
- Construct: expressed in transfected cells; host or cells: HEK293-TetOFF, expression induced by withdrawing doxycycline
- EXPERIMENTAL_PROTOCOL: TRPV1 screening assay (FLIPR, Fluo-4 calcium), capsaicin stimulation
- Assay type: cell-based
- CONDITION_PARAMETERS: FLIPR, HEK293-TetOFF-TRPV1, capsaicin 50 nM final; read-out: VR1 flipr CAPSAICIN IC50
Consider the following compounds; for each one, report its pIC50.
The read-out pIC50 is expressed as -log10 of concentration in moles per litre.

Reported pIC50, compound O=C(Nc1ccc(C(F)(F)F)cc1)N1CCC2(CC1)C(=O)N(c1ccccn1)C2c1ccccc1 (single isomer, unassigned) : ____ 8.15

Consider the compound shown here: CCC(C)c1ccc(NC(=O)N2CCC3(CC2)C(=O)N(c2ccccc2)C3c2ccccc2)cc1 (stereo not drawn) What is its recorded pIC50? 7.01

Which pIC50 value belongs to O=C(Nc1ccc(C(F)(F)F)cc1)N1CCC2(CC1)C(=O)N(c1ccccn1)C2c1ccccc1 (stereo not drawn) ? 7.70

Query (compound): CC(C)c1ccc(NC(=O)N2CCC3(CC2)CN(c2ccccc2)C3=O)cc1 ; field requested: pIC50 6.30

Give the measured pIC50 of CC(C)(C)C1CCC(NC(=O)N2CCC3(CC2)CN(c2ccccc2)C3=O)CC1 (single isomer, unassigned) . 7.08

Param item = CC(C)(C)c1ccc(NC(=O)N2CCC3(CC2)CN(c2ccccc2)C3=O)cc1 ; retrieve measured pIC50. 7.10

---

- SYSTEM_TESTED: human CaV3.2 (Homo sapiens)
- Sequence (O95180 whole entry): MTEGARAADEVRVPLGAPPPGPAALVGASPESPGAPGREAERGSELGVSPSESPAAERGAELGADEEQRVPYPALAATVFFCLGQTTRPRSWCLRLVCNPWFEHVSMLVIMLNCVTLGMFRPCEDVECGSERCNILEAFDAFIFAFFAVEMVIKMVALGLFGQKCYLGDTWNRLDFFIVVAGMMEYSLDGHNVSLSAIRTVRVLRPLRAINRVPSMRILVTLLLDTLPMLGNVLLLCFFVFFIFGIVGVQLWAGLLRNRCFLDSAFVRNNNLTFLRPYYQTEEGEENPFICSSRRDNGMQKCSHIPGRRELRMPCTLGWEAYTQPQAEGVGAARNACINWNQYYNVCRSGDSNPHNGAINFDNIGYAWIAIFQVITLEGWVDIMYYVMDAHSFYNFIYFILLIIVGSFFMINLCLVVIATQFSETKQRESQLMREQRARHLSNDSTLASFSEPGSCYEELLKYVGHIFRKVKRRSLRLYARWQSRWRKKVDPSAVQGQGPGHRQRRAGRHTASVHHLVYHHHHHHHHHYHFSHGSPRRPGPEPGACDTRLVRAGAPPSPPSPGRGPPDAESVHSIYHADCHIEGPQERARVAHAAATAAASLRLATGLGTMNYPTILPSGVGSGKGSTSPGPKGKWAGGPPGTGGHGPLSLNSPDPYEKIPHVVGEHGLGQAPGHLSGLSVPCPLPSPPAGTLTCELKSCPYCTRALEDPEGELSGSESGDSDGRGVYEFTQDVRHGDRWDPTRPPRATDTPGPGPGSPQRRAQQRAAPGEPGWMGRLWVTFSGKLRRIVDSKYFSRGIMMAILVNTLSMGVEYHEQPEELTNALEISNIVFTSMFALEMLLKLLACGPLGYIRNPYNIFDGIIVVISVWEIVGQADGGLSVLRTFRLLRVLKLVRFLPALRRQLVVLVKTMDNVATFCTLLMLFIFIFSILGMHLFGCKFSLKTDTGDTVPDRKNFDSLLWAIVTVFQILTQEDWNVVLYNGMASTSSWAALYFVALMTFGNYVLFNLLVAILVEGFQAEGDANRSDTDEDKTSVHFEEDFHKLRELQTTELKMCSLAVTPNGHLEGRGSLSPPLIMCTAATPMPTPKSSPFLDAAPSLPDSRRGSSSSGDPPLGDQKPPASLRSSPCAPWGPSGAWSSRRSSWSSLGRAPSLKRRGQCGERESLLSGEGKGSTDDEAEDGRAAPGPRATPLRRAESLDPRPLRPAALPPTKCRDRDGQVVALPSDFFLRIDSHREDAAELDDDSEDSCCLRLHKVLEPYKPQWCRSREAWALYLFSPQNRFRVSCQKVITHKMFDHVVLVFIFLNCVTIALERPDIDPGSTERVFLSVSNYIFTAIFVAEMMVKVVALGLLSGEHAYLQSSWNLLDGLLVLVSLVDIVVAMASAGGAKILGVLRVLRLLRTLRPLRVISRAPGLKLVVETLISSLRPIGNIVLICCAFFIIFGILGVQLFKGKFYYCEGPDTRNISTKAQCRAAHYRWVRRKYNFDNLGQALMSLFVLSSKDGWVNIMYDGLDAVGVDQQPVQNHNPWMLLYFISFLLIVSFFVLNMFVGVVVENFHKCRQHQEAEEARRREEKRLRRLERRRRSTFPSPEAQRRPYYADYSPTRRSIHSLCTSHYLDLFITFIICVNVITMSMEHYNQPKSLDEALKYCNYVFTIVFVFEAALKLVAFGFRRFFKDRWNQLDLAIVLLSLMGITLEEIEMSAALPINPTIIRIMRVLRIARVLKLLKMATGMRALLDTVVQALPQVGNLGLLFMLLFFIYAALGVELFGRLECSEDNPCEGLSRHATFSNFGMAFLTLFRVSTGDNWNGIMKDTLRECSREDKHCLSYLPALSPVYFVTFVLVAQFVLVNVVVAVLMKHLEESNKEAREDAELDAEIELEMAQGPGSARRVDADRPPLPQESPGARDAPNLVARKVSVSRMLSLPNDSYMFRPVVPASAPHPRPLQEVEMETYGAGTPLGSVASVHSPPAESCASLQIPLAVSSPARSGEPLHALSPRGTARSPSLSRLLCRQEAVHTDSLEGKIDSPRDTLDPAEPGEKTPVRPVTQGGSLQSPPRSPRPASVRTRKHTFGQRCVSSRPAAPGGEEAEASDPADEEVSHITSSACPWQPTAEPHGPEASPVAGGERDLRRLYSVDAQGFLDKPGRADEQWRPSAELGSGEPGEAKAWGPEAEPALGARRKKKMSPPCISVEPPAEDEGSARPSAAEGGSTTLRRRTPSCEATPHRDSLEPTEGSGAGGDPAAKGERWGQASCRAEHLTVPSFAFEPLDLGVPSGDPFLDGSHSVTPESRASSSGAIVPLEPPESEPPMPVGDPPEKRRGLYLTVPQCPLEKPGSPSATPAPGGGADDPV
- EXPERIMENTAL_PROTOCOL: IonWorks screen for hCaV3.2 (T-type calcium current, voltage clamp)
- CONDITION_PARAMETERS: IonWorks HT, HEK cells, 10 min incubation, pulse 10, 8-point curve; read-out: IW hCav3 2 IC50
- Description: Functional evaluation of voltage-gated ion channels can be used to determine potency and/or single concentration efficacy of the Azetidinone Derivatives of the present invention. […] Experiments were performed at room temperature. […] During this time leak currents were measured during a step to −110 mV (200 milliseconds). […] T-type currents were measured as the peak inward current minus the current at the end of the 250 msec step to −20 mV. […]
Consider the following compounds; for each one, report its pIC50.
Just so you know, pIC50 here is -log10 of the concentration in molar units; reply with that number alone.

Which pIC50 is reported for this compound? CC[C@H](C)[C@H](NC(=O)N1CCC2(CC1)C(=O)N(c1cccc(F)c1)C2c1ccc(Cl)cc1)C(=O)NC (some centres unmarked) 6.74

Sample C[C@H](NC(=O)N1CCC2(CC1)C(=O)N(c1cccc(Cl)c1)C2c1cccnc1)c1ccc(F)cc1 (some centres unmarked) [drawing 637] — what was its pIC50? 6.17

Requested field: pIC50. Item: CC[C@H](C)[C@H](NC(=O)N1CCC2(CC1)C(=O)N(c1cccc(F)c1)C2c1ccc(Cl)cc1)C(=O)OC(C)C (some centres unmarked) 7.35

Return reported pIC50; argument: N#Cc1cncc(N2C(=O)C3(CCN(C(=O)Nc4cc(F)cc(F)c4)CC3)C2c2ccccn2)c1 (centres unmarked) 5.62

Using the record for N#Cc1cccc(NC(=O)N2CCC3(CC2)C(=O)N(c2cccc(F)c2)C3c2ccc(Cl)cc2)c1 (single isomer, unassigned) , report its pIC50. 6.74

May I ask what pIC50 has been recorded for N#Cc1cncc(N2C(=O)C3(CCN(C(=O)Nc4cccc(C(F)(F)F)c4)CC3)C2c2ccccn2)c1 (centres unmarked) ? 5.90

What value of measured pIC50 is listed for O=C(Nc1cccnc1)N1CCC2(CC1)C(=O)N(c1cccc(Cl)c1)C2c1ccccn1 (centres unmarked) ? 5.95

Item N#Cc1cccc(NC(=O)N2CCC3(CC2)C(=O)N(c2ccc(F)c(Cl)c2)C3c2ccccn2)c1 (centres unmarked) has what recorded pIC50? 6.45

---

Provide the reported IC50 of each item.
- SYSTEM_TESTED: TRPV1 (VR1) (Rattus norvegicus, UniProt O35433)
- Construct: expressed in transfected cells; host or cells: HEK293-TetOFF, expression induced by withdrawing doxycycline
- Sequence (O35433 whole entry): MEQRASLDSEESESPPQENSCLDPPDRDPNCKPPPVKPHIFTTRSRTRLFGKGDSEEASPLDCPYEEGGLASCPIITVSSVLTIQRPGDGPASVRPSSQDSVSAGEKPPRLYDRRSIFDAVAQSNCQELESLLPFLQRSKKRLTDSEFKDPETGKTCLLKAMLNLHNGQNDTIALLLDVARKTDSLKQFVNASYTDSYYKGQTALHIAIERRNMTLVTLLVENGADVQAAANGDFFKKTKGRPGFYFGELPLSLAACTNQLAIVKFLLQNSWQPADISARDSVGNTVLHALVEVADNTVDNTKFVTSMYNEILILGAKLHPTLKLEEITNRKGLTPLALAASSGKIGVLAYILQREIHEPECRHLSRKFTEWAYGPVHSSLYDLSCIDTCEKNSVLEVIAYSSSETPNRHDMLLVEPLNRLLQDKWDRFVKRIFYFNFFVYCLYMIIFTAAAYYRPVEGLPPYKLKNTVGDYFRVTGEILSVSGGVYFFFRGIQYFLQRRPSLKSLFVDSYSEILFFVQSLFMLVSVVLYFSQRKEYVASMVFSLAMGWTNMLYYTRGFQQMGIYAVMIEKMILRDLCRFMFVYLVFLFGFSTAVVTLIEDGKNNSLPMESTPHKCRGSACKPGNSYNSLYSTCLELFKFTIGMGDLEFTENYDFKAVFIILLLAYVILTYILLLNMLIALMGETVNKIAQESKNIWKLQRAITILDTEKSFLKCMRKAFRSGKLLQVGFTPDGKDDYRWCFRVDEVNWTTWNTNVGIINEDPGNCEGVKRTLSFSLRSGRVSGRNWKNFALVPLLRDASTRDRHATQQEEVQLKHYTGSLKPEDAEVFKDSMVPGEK
- EXPERIMENTAL_PROTOCOL: TRPV1 screening assay (FLIPR, Fluo-4 calcium), PMA stimulation
- Type: cell-based
- CONDITION_PARAMETERS: HEK293-TetOFF-TRPV1, PMA
Just the number please, in nM, no unit attached.

Name the recorded IC50 for CC(C)(C)c1ccc(NC(=O)N2CCC3(CC2)C(=O)N(c2ccccc2)C3c2ccccc2)cc1 (single isomer, unassigned) . 12

Look up IC50 for this molecule: O=C(Nc1ccc(C(F)(F)F)cc1)N1CCC2(CC1)C(=O)N(c1ccccn1)C2c1ccccc1 (stereo not drawn) 16

// lookup IC50 for O=C(Nc1ccc(C(F)(F)F)cc1)N1CCC2(CC1)C(=O)N(c1ccccn1)C2c1ccccc1 (single isomer, unassigned) 7
